Molecular target: human GABAA α1β3γ2 receptor (Homo sapiens (Human), UniProt P14867+P18507)
Assay: Radioligand binding assay, competition for [3H]Flumazenil, γ2-containing GABAA subtypes
Conditions: Ki α1β3γ2 (nM)/Ki α2β2γ1 (nM), Table 3
Measured Metric: γ2/γ1 Selectivity Ratio
Lab note: record just the number, no unit beside it.

Entry under test: Clc1ccc2c(c1)C(c1ccccc1)=NCc1nncn1-2 [Estazolam, reference compound] . Its γ2/γ1 Selectivity Ratio was 0.0089

Sure, the documented γ2/γ1 Selectivity Ratio for Cc1nnc2n1-c1sc3c(c1C(c1c(F)cccc1F)=N[C@H]2C)COCCC3 is 100.3

Memo: Cc1nnc2n1-c1sc3c(c1C(c1c(F)cccc1F)=N[C@H]2C)COCCO3 , reported γ2/γ1 Selectivity Ratio: 67.2

The reported γ2/γ1 Selectivity Ratio of the compound Cc1nnc2n1-c1sc3c(c1C(c1c(F)cccc1F)=N[C@H]2C)CCCC3 [RE-B, reference compound] was 2.68

The recorded γ2/γ1 Selectivity Ratio for Cc1nnc2n1-c1sc3c(c1C(c1c(F)cccc1F)=NC2)CCCCC3 is 49.6
